- subject.of.test: ScPex13
- assay.explanation: SPOT peptide array binding signal intensity (averaged, normalized) (arbitrary units (background-subtracted, floor 0; scale differs between SH3 domains)); higher = stronger binding of the SH3 domain to the peptide
property.measured: SPOT peptide array binding signal intensity

Prompt: Entry `TEVPIPRRPPPPQAA` : reported SPOT peptide array binding signal intensity = ?
Completion: ≤ 0

Prompt: Entry `NHSRSLFSLPGNQQS` please
Completion: ≤ 0

Prompt: Entry `STKKPRPPVKSKPKH` please
Completion: ≤ 0

Sourced from the supplement of paper PMC4466140
